- target.under.test: human GLP-1 receptor (human, UniProt P43220 24-463)
- test.description: cell-based or functional assay
*1 amine or outer side, *2 acyl side, *3 side chain or, on linkers, in order; H or OH if unused. Where no end group is shown, it is not given here. Side-chain parts run from the residue outwards. [ ]: non-standard residue; d: D form. The star is where a group is joined. αMePhe(2-F) = C[C@](N)(Cc1ccccc1F)C(=O)O; γGlu = O=C(O)[C@H](CCC(=O)[*:2])N[*:1]; C14 diacid = O=C(O)CCCCCCCCCCCCC(=O)*; αMeY = C[C@](N)(Cc1ccc(O)cc1)C(=O)O; αMeF = C[C@](N)(Cc1ccccc1)C(=O)O; αMeL = CC(C)C[C@](C)(N)C(=O)O; Orn = NCCC[C@H](N)C(=O)O; AEEA = NCCOCCOCC(=O)O; Aib = CC(C)(N)C(=O)O
recorded.endpoint: Emax, cAMP (%)
Write the value in % as a bare number.

Use the examples below as a reference point.
>  <binder>
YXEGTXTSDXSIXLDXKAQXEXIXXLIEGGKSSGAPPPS (Aib2, αMeF(2F)6, 4Pal10, αMeL13, Orn16, Aib20, 3ClPhe22, D-Glu24, αMeY25, K17 and K31: K(AEEA2-(γ-Glu)-CO-(CH2)12-CO2H), C-terminal NH2) [Example 62]

>  <Emax, cAMP / %>
99.4

$$$$
>  <binder>
Y[Aib]EGT[αMePhe(2-F)]TSDK([AEEA-AEEA-γGlu-C14 diacid])SI[αMeL]LD[Orn]IAQ[Aib]E[αMeF]IK([AEEA-AEEA-γGlu-C14 diacid])[αMeY]LIEGGPSSGAPPPS-NH2 [Example 110]

>  <Emax, cAMP / %>
98.8

$$$$

Kindly review the next binder as well.
Incoming: Any idea what its Emax, cAMP is? The binder is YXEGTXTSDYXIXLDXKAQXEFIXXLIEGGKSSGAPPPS (Aib2, αMeF(2F)6, αMeS11, αMeL13, Orn16, Aib20, D-Glu24, αMeY25, K17 and K31: K(AEEA2-(γ-Glu)-CO-(CH2)12-CO2H), C-terminal NH2) [Example 49]
Outgoing: 97.3
